- assay_summary: NOD1 signaling inhibitors, primary screen, cell-based, luminescence, uHTS (AID 1578);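 further: HEK-293T reporter cells stimulated with the NOD1 agonist gamma-tri-DAP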
- protocol_conditions: NOD1-driven NF-kB luciferase reporter cells, at 4 µM
Screen size: about 290,000 compounds; about 3,000 (1%) were called active. No stated cut-off is given here; in the data, active means inhibition mostly above about 36% (no sharp cut-off); inactive means mostly below about 34%. Only a selection was taken, and actives are over-represented in it overall.
Classes used: active, inactive

- compound: "CN(c1ncnc(N)c1[N+](=O)[O-])C1CCS(=O)(=O)C1 (stereo unspecified)"
  classification: "active"
- compound: "CCOC(=O)c1[nH]ncc1CN1CCCC(C(=O)c2ccc(OC)c(OC)c2)C1 (stereo unspecified)"
  classification: "active"
- compound: "Cc1cc(C(=O)CN2C(=O)c3ccccc3S2(=O)=O)c(C)n1-c1ccccc1"
  classification: "active"
- compound: "N#CC1=C(SCC(=O)NC2CC2)NC(=O)C(C#N)C12CCCCC2 (stereo unspecified)"
  classification: "inactive"
- compound: "CN(c1ccccc1)S(=O)(=O)c1ccc(Cl)c(C(=O)Nc2ccc(N3CCOCC3)cc2)c1"
  classification: "inactive"
- compound: "CC(C)(C)OC(=O)N1CCOCCOCCN(C(=O)OC(C)(C)C)CCOCCOCC1"
  classification: "inactive"
- compound: "O=C(CSc1nn(-c2ccccc2)c(=S)s1)NC(=O)NCc1ccco1"
  classification: "inactive"
- compound: "O=C1/C(=C/c2ccccc2[N+](=O)[O-])COc2ccccc21"
  classification: "active"
- compound: "CCOC(=O)N1CCN(S(=O)(=O)/C=C/c2ccccc2)CC1"
  classification: "inactive"
- compound: "O=C(CN1C(=O)c2ccccc2S1(=O)=O)c1ccccc1"
  classification: "inactive"
- compound: "COc1ccccc1N(CC(=O)Nc1ccccc1C)S(C)(=O)=O"
  classification: "inactive"
- compound: "O=C(NCC(=O)N(c1cccc(F)c1)C(C(=O)NC1CCCC1)c1ccco1)c1ccco1 (stereo unspecified)"
  classification: "inactive"
- compound: "CCC1=C/C(=C/c2sc3ccccc3[n+]2CC)CC(C)(C)C1"
  classification: "inactive"
- compound: "COc1ccc(OC)c(NC(=O)c2cc(-c3cc(Cl)ccc3O)n[nH]2)c1"
  classification: "active"
- compound: "Cc1ccc(C(=O)Nc2ncn[nH]2)cc1"
  classification: "inactive"
- compound: "CCC(C(=O)c1ccc2ncccc2c1)c1ccccc1 (stereo unspecified)"
  classification: "inactive"
- compound: "CCOC(=O)N1C/C(=C\\c2ccccc2)C(=O)/C(=C/c2ccccc2)C1"
  classification: "active"
- compound: "CCOC(=O)c1[nH]ncc1CN1CCCC(C(=O)c2ccc(C(C)(C)C)cc2)C1 (stereo unspecified)"
  classification: "inactive"
- compound: "CCSC1=C(C#N)C2(CCCCC2)C(C#N)C(=O)N1 (stereo unspecified)"
  classification: "inactive"
- compound: "CC(C)(C)OC(=O)CNC(=O)c1nc[nH]c1C(=O)NCc1ccc(CNC(=O)OC(C)(C)C)cc1"
  classification: "inactive"
- compound: "CCOC(=O)N1CCN(C/C(C)=C/c2ccccc2)CC1"
  classification: "inactive"
- compound: "Cc1ccc(S(=O)(=O)N(C)C)cc1NC(=O)C1CCCC1"
  classification: "inactive"
- compound: "Cc1ccc(N(c2ncnc(N)c2[N+](=O)[O-])C2CCCCC2)cc1"
  classification: "inactive"
- compound: "COc1ccc(NC(=O)[C@@H]2[C@@H]3C(=O)N(C4CCCCC4)C(=O)[C@@H]3C3c4ccccc4C=CN32)cc1 (stereo partly specified)"
  classification: "inactive"
- compound: "Cc1nnc2n(c1=O)C(CS(=O)(=O)c1ccccc1)CS2 (stereo unspecified)"
  classification: "inactive"
- compound: "CC[n+]1c(/C=C2/C=C(C)CC(C)(C)C2)sc2ccc(OC)cc21"
  classification: "active"
- compound: "O=c1c(-c2ccc(Cl)cc2)c[nH]n1-c1ccccc1"
  classification: "inactive"
- compound: "Nc1ncnc(N(c2ccccc2)C2CCCCC2)c1[N+](=O)[O-]"
  classification: "inactive"
- compound: "CO/N=C(/CS(=O)c1ccc(Br)cc1)c1ccc(OC)cc1 (stereo unspecified)"
  classification: "inactive"
- compound: "COc1ccc(/C=C(\\NC(=O)c2ccc(Cl)cc2)C(=O)NCCCn2ccnc2)cc1OC"
  classification: "inactive"
- compound: "Cc1ccccc1C(=O)NC(=S)N(CCO)Cc1ccccc1"
  classification: "inactive"
